System: P12-Ichikawa
Assay Protocol: cell viability relative to DMSO control; higher = less cytotoxic
Condition Details: RPMI 5 mM glucose + 10% FBS; 48 h; 1.71 µM
Reported cell viability values follow for various molecules
Write it as a number; the unit % goes unstated.

The examples below pair each entry with its known result.
{"Molecule": "NC(=O)c1nnn(Cc2cc(Cl)c(C(=O)c3ccc(Cl)cc3)c(Cl)c2)c1N", "Tgt": "P12-Ichikawa", "Observed Value": 120}
{"Molecule": "NC[C@H](O)c1ccc(O)c(O)c1", "Tgt": "P12-Ichikawa", "Observed Value": 92.3}
{"Molecule": "OC[C@H]1OC(O)C[C@@H](O)[C@@H]1O (stereo partly specified)", "Tgt": "P12-Ichikawa", "Observed Value": 131}
{"Molecule": "O=C(NOCC1CC1)c1ccc(F)c(F)c1Nc1ccc(I)cc1Cl", "Tgt": "P12-Ichikawa", "Observed Value": 88.7}
{"Molecule": "CN1CCN(CC1)C2=CC3=C([NH]C(=N3)C/4=C(\\N)C5=C(F)C=CC=C5NC4=O)C=C2", "Tgt": "P12-Ichikawa", "Observed Value": 89.2}

Please look at the following molecule next.
molecule COC(=O)[C@H](Cc1ccccc1)NC(=O)[C@@H](N)CC(=O)O , cell viability observed: 109

====

System: P12-Ichikawa
Assay Protocol: cell viability relative to DMSO control; higher = less cytotoxic
Condition Details: RPMI 5 mM glucose + 10% FBS; 48 h; 0.0211 µM
Reported cell viability values follow for various molecules
Write it as a number; the unit % goes unstated.

{"Molecule": "OC1=C(Cl)C=C(N\\C2=C(\\C(=O)NC2=O)C3=C(C=CC=C3)[N+]([O-])=O)C=C1", "cell viability (%)": 110}

molecule CN1CCC(CNc2ccc3ncc(-c4cccc(OC(F)(F)F)c4)n3n2)CC1 , cell viability observed: 102

molecule Clc1ccc(CCC(Cn2ccnc2)Sc2c(Cl)cccc2Cl)cc1 (stereo not given) , cell viability observed: 103

molecule COC(=O)[C@H](Cc1ccccc1)NC(=O)[C@@H](N)CC(=O)O , cell viability observed: 119

molecule C/C=C(\C)C(=O)N[C@@H](c1ccccc1)[C@@H](O)C(=O)O[C@H]1C[C@@]2(O)[C@@H](OC(=O)c3ccccc3)[C@@H]3[C@]4(OC(C)=O)CO[C@@H]4C[C@H](O)[C@@]3(C)C(=O)[C@H](OC(C)=O)C(=C1C)C2(C)C , cell viability observed: 13.8

====

Reported cell viability values follow for various compounds
System: SEM cells
Assay Protocol: cell viability relative to DMSO control; higher = less cytotoxic
Condition Details: HPLM + 10% dialyzed FBS; 48 h; 5.12 µM

The examples below pair each entry with its known result.
{"Compound": "CC1Cc2ccccc2N1NC(=O)c1ccc(Cl)c([S+](N)(=O)[O-])c1 (centres undefined)", "Observed Value": "112%"}
{"Compound": "CC(C)[C@H](O)C(=O)N[C@@H](C)C(=O)N[C@@H]1C(=O)N(C)CCc2ccccc21", "Observed Value": "74%"}
{"Compound": "Cc1nc(-c2ccc(-c3ccc(C(=O)N4CCc5cc6c(cc54)C4(CCN(C)CC4)CO6)cc3)c(C)c2)no1", "Observed Value": "117%"}

compound NC(=O)c1nnn(Cc2cc(Cl)c(C(=O)c3ccc(Cl)cc3)c(Cl)c2)c1N , cell viability observed: 111%

====

Test system: SEM cells
Assay Protocol: cell viability relative to DMSO control; higher = less cytotoxic
Condition Details: RPMI 5 mM glucose + 10% FBS; 48 h; 15.4 µM
Reported cell viability values follow for various compounds
Write it as a number; the unit % goes unstated.

{"Compound": "Nc1ncnc2nc(-c3ccc(N4CCOCC4)nc3)cc(-c3cccc(Br)c3)c12", "Tgt": "SEM cells", "Unit Symbol": "%", "cell viability": 106}

Please look at the following compound next.
compound CCOc1cc(C(=O)Nc2ccc(Cl)c(-c3nc4ccccc4[nH]3)c2)cc(OCC)c1OCC , cell viability observed: 9.91

====

Test system: P12-Ichikawa
Assay Protocol: cell viability relative to DMSO control; higher = less cytotoxic
Condition Details: HPLM + 10% dialyzed FBS; 48 h; 46.1 µM
cell viability under 60% gets t, anything at or over 60% gets f.

{"Compound": "CC(C)[C@H](O)C(=O)N[C@@H](C)C(=O)N[C@@H]1C(=O)N(C)CCc2ccccc21", "Cat": "f"}
{"Compound": "Cc1cc(/C=c2/sc3nc4ccccc4n3c2=O)c(C)n1-c1ccccc1", "Cat": "f"}
{"Compound": "CC1=CC/2=C(C=C1C)N(C[C@@H](O)[C@@H](O)[C@@H](O)CO)C/3=N/C(=O)NC(=O)C3=N2", "Cat": "f"}
{"Compound": "CN1CCN(CC1)C2=CC3=C([NH]C(=N3)C/4=C(\\N)C5=C(F)C=CC=C5NC4=O)C=C2", "Cat": "t"}
{"Compound": "Clc1ccc(C(c2ccc(Cl)cc2)[n+]2ccn(CC(OCc3ccc(Cl)cc3Cl)c3ccc(Cl)cc3Cl)c2)cc1 (stereo not drawn)", "Cat": "t"}
{"Compound": "Cc1cnc(Nc2cccc(CN3CCOCC3)c2)nc1Nc1cccc([S+](=O)([O-])NC(C)(C)C)c1", "Cat": "t"}
{"Compound": "COCCCC/C(=N\\OCCN)c1ccc(C(F)(F)F)cc1", "Cat": "f"}

Field: next compound
Take the compound Clc1ccc(C(c2ccccc2Cl)C(Cl)Cl)cc1 (stereo not drawn) and say whether its cell viability is less than 60%. f

====

Test system: SEM cells
Assay Protocol: cell viability relative to DMSO control; higher = less cytotoxic
Condition Details: HPLM + 10% dialyzed FBS; 48 h; 1.71 µM
Reported cell viability values follow for various compounds
Write it as a number; the unit % goes unstated.

The examples below pair each entry with its known result.
{"Compound": "c1coc(CNc2ncnc3nc[nH]c23)c1", "Tgt": "SEM cells", "cell viability, %": 110}
{"Compound": "N[C@@H]1C[C@H]1c1ccccc1", "Tgt": "SEM cells", "cell viability, %": 119}
{"Compound": "Nc1ncnc2nc(-c3ccc(N4CCOCC4)nc3)cc(-c3cccc(Br)c3)c12", "Tgt": "SEM cells", "cell viability, %": 115}
{"Compound": "NC(=O)N1CCC(CC(=O)N2CCC([C@H]3c4ncc(Br)cc4CCc4cc(Cl)cc(Br)c43)CC2)CC1", "Tgt": "SEM cells", "cell viability, %": 57.1}
{"Compound": "CC(C)(C)NCC(O)c1ccc(O)c(CO)c1 (stereo not drawn)", "Tgt": "SEM cells", "cell viability, %": 106}

compound O=C(O)c1cccnc1 , cell viability observed: 37.5

compound Cc1cc(/C=c2/sc3nc4ccccc4n3c2=O)c(C)n1-c1ccccc1 , cell viability observed: 108

compound CC(C)(C)[C@]1(O)C[C@@H]2OC(=O)C[C@@]23C(=O)O[C@@H]2OC(=O)[C@H](O)C213 (stereo partly drawn) , cell viability observed: 111

compound CNC(=O)c1nn(C)c2c1C(C)(C)Cc1cnc(Nc3ccc(N4CCN(C)CC4)cc3)nc1-2 , cell viability observed: 16

compound CCc1nc(N)nc(N)c1-c1ccc(Cl)cc1 , cell viability observed: 63

compound COC(=O)[C@H](Cc1ccccc1)NC(=O)[C@@H](N)CC(=O)O , cell viability observed: 119

compound CC[C@H]1OC(=O)[C@H](C)[C@@H](O[C@H]2C[C@@](C)(OC)[C@@H](O)[C@H](C)O2)[C@H](C)[C@@H](O[C@@H]2O[C@H](C)C[C@H](N(C)C)[C@H]2O)[C@](C)(O)C[C@@H](C)/C(=N\OCOCCOC)[C@H](C)[C@@H](O)[C@]1(C)O , cell viability observed: 93.6

compound Nc1cc(N2CCCCC2)nc(N)[n+]1[O-] , cell viability observed: 75.6

====

Reported cell viability values follow for various molecules
Tested on: NOMO1
Assay Protocol: cell viability relative to DMSO control; higher = less cytotoxic
Condition Details: RPMI 5 mM glucose + 10% FBS; 48 h; 5.12 µM
Write it as a number; the unit % goes unstated.

The examples below pair each entry with its known result.
{"Molecule": "COc1ccc(-n2c(C)c([N+](=O)[O-])c3ccc(O)cc32)cc1", "Unit Symbol": "%", "Observed Value": 98.3}
{"Molecule": "CC[C@H](C)C(=O)O[C@H]1C[C@@H](C)\\C=C2\\C=C/[C@H](C)[C@H](CC[C@@H]3C[C@@H](O)CC(=O)O3)[C@@H]12", "Unit Symbol": "%", "Observed Value": 86.8}

Readout cell viability for COc1cccc(N(C)C(=S)Oc2ccc3c(c2)CCCC3)n1 , test system NOMO1, was 103

====

Test system: NOMO1
Assay Protocol: cell viability relative to DMSO control; higher = less cytotoxic
Condition Details: RPMI 5 mM glucose + 10% dialyzed FBS; 48 h; 15.4 µM
Assay Readout: cell viability (%)
Write it as a number; the unit % goes unstated.

The examples below pair each entry with its known result.
{"Compound": "CN1CCN(CC1)C2=CC3=C([NH]C(=N3)C/4=C(\\N)C5=C(F)C=CC=C5NC4=O)C=C2", "Unit Symbol": "%", "cell viability": 63.1}
{"Compound": "CC[C@H](CO)Nc1nc(NCc2ccccc2)c2ncn(C(C)C)c2n1", "Unit Symbol": "%", "cell viability": 77.3}
{"Compound": "O=C(O)c1cccnc1", "Unit Symbol": "%", "cell viability": 22.1}
{"Compound": "CC(C)[C@H]1C(=O)N[C@H](CO)Cc2c[nH]c3cccc(c23)N1C", "Unit Symbol": "%", "cell viability": 56}
{"Compound": "C=C1CCC2[C@](C)(CO)C(O)CC[C@]2(C)C1C/C=C1/C(=O)OCC1O (stereo partly specified)", "Unit Symbol": "%", "cell viability": 101}
{"Compound": "C/C=C(\\C)C(=O)N[C@@H](c1ccccc1)[C@@H](O)C(=O)O[C@H]1C[C@@]2(O)[C@@H](OC(=O)c3ccccc3)[C@@H]3[C@]4(OC(C)=O)CO[C@@H]4C[C@H](O)[C@@]3(C)C(=O)[C@H](OC(C)=O)C(=C1C)C2(C)C", "Unit Symbol": "%", "cell viability": 21.3}
{"Compound": "CC(O)(C[S+](=O)([O-])c1ccc(F)cc1)C(=O)Nc1ccc(C#N)c(C(F)(F)F)c1 (stereo unspecified)", "Unit Symbol": "%", "cell viability": 79.4}
{"Compound": "Clc1ccc(C(c2ccc(Cl)cc2)[n+]2ccn(CC(OCc3ccc(Cl)cc3Cl)c3ccc(Cl)cc3Cl)c2)cc1 (stereo unspecified)", "Unit Symbol": "%", "cell viability": 83}

compound CN(C)C(=O)[C@H](O)[C@H](Cc1ccccc1)NC(=O)c1cc2cc(Cl)ccc2[nH]1 , cell viability observed: 136

compound CC(C)[C@H](O)C(=O)N[C@@H](C)C(=O)N[C@@H]1C(=O)N(C)CCc2ccccc21 , cell viability observed: 103

compound COc1cccc(OC)c1-c1cc(C(=O)NC2(C(=O)O)C3CC4CC(C3)CC2C4)nn1-c1ccnc2cc(Cl)ccc12 (stereo unspecified) , cell viability observed: 91

compound C[C@H](NC(=O)[C@@H](O)c1cc(F)cc(F)c1)C(=O)N[C@@H]1C(=O)N(C)c2ccccc2-c2ccccc21 , cell viability observed: 97.3

compound C[C@]12CC[C@H]3[C@@H](CC[C@@]45O[C@@H]4C(O)=C(C#N)C[C@]35C)[C@@H]1CC[C@@H]2O , cell viability observed: 125

compound COc1cc2c(cc1O)CCC1C2CC[C@@]2(C)C1CC[C@@H]2O (stereo partly specified) , cell viability observed: 33.9

compound CN(C)c1ccc(-c2nc3c(N4CCN(CC(=O)Nc5nccs5)CC4)c(Cl)cnc3[nH]2)cc1 , cell viability observed: 94.8

compound CN(C)CCc1c[nH]c2ccc(Cn3cncn3)cc12 , cell viability observed: 5.4
